The measured values listed here are drawn from ChEMBL document CHEMBL3044831.

# Tested on: MCF7
# Test: Cytotoxicity against Homo sapiens (human) MCF-7 cells after 48 hr by SRB assay relative to control
# Format: functional, cell-based
# Test settings: MCF7, 48 h
// reported pIC50 per item
The meaning of pIC50 here: minus log10 of the concentration in molar units.

Input CC1(C)CC(=O)C2=C(C1)N(c1ccc(S(N)(=O)=O)cc1)c1nc[nH]c(=O)c1C2c1ccc(F)cc1 (configuration not stated) , output reported pIC50.
4.11

Output measured pIC50 for this item: CC(=O)N(C(C)=O)C1=C(C#N)C(c2ccc(F)cc2)C2=C(CC(C)(C)CC2=O)N1c1ccc(S(N)(=O)=O)cc1 (configuration not stated)
4.10

For the compound CC1(C)CC(=O)C2=C(C1)N(c1ccc(S(N)(=O)=O)cc1)C(NC(=O)CCl)=C(C#N)C2c1ccc(F)cc1 (configuration not stated) , report pIC50.
4.15

Identify the reported pIC50 for the following entry. CC1(C)CC(=O)C2=C(C1)N(c1ccc(S(N)(=O)=O)cc1)c1ncnc(NN)c1C2c1ccc(F)cc1 (configuration not stated)
4.09

Name the recorded pIC50 of the compound listed here: CC1(C)CC(=O)C2=C(C1)N(c1ccc(S(N)(=O)=O)cc1)C(N)=C(C#N)C2c1ccc(F)cc1 (configuration not stated)
4.14
